Cited source: paper PMC10918664

# targetEntity: human FXIIa (Homo sapiens)
# Sequence (P00748 373-615 limits assumed): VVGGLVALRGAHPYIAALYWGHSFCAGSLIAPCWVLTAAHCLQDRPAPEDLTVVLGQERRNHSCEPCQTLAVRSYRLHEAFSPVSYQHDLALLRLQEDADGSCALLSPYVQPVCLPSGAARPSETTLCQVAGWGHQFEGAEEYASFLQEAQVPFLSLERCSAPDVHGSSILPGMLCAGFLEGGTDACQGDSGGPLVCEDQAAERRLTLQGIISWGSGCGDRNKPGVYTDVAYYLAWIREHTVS
# Sequence (P00748 20-372 partner limits assumed): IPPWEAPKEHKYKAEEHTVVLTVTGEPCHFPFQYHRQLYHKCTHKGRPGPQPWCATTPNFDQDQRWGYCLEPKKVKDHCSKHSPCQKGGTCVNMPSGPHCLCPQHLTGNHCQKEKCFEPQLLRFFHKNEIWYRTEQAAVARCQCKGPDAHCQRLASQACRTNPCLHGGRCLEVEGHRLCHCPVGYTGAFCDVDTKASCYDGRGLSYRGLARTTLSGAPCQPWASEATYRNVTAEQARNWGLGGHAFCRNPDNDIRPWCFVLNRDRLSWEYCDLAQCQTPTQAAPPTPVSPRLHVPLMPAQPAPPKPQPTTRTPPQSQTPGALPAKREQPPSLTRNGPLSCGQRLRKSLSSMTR
# testDescription: Direct inhibition of human FXIIa, chromogenic substrate hydrolysis assay
# assaySetup: human FXIIa, pH 7.4, 37 °C
experimentalEndpoint: ΔY (%) efficacy of inhibition

Sample answers from the record:
COC(=O)c1nc(N)n(C(=O)c2ccc(C(C)(C)C)cc2)n1 [RA, reference compound] = 105
COC(=O)c1nc(N)n(C(=O)c2ccc(Cl)cc2)n1 = 102

P. COC(=O)c1nc(N)n(C(=O)c2cc(OC)c(OC)c(OC)c2)n1
Q. COC(=O)c1nc(N)n(C(C)=O)n1
Between P and Q , which one shows the larger ΔY (%) efficacy of inhibition value? Identify your pick by its label.
P
